- TARGET_UNDER_TEST: T1, human TL1A extracellular domain with N-terminal HIS and FLAG tag (human, UniProt O95150 72-251)
- T1 construct: the whole entry is named
- T1 sequence: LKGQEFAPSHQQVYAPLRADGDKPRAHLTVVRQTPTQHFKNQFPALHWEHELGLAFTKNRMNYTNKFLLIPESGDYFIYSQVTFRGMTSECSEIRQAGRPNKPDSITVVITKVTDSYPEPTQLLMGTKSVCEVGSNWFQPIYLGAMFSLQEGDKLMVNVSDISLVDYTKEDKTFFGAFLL
- TEST_SUMMARY: SPR Run 4, purified Ab captured on Protein A, TL1A 5 ug/mL, timepoint 44
Strictly below 100 RU in TL1A Binding Level (Early): Y. Otherwise: N.

Answered examples (3):
320-342 (antibody, human IgG1, name in Kabat numbering, V domains shown, human IgG1, lambda) VH: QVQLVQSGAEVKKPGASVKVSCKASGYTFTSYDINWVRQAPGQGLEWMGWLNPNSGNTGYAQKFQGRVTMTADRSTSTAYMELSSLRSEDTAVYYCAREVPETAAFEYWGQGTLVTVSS VL: QSVLTQPPSVSGAPGQRVTISCTSSSSDIGAGLGVHWYQQLPGTAPKLLIEGYYNRPSGVPDRFSGSKSGTSASLTITGLLPEDEGDYYCQSYDQTLSALFGGGTKLTVLG: N
320-351 (antibody, human IgG1, name in Kabat numbering, V domains shown, human IgG1, lambda) VH: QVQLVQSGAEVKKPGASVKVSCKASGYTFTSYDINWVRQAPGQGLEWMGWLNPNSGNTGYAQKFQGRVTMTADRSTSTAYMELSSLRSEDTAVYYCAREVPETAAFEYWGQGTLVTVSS VL: QSVLTQPPSVSGAPGQRVTISCTSSSSDIGAGLGVHWYQQLPGTAPKLLIEGYYNRPSGVPDRFSGSKSGTSASLTITGLLPEDEGDYYCQSYDGQLSALFGGGTKLTVLG: N
320-313 (antibody, human IgG1, name in Kabat numbering, V domains shown, human IgG1, lambda) VH: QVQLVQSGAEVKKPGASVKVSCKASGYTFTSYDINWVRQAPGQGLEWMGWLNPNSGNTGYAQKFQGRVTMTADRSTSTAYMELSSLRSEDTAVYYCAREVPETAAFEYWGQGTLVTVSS VL: QSVLTQPPSVSGAPGQRVTISCTSSSSDIGAGLGVHWYQQLPGTAPKLLIEGYYNRPSGVPDRFSGSKSGTSASLTITGLLPEDEGDYYCHSYDGTLSALFGGGTKLTVLG: N

// switching to the query binder
input: Threshold test, TL1A Binding Level (Early) < 100 RU: 320-359 (antibody, human IgG1, name in Kabat numbering, V domains shown, human IgG1, lambda) VH: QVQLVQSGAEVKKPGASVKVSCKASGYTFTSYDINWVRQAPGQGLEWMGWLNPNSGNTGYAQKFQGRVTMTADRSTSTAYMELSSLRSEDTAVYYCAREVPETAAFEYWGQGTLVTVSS VL: QSVLTQPPSVSGAPGQRVTISCTSSSSDIGAGLGVHWYQQLPGTAPKLLIEGYYNRPSGVPDRFSGSKSGTSASLTITGLLPEDEGDYYCQSYDGTSSALFGGGTKLTVLG
output: Y

Hello, the source for this data is patent US20170081400A1, in case you need it.
